System: dermal microvasculature, leukocyte/endothelial cells interaction
experimental-details: Intravital microscopy of skin flap in mice (vessel diameter, rolling leukocytes)
Assay type: in vivo, C57B16 male mice
Parameters: unit not given here
condition-parameters: 3 nmol topical
readout-name: Area under the curve (change in vessel diameter)

# compound, numeric-value
records = [
    ("CCOC(=O)O[C@]1(C(=O)COC(=O)CC)CC[C@H]2[C@@H]3CCC4=CC(=O)C=C[C@]4(C)[C@H]3[C@@H](O)C[C@@]21C [Prednicarbate, reference compound]", 282),
    ("CC1(C)O[C@@H]2C[C@H]3C4CCC5=CC(=O)C=C[C@]5(C)[C@@]4(F)[C@@H](O)C[C@]3(C)[C@]2(C(=O)COC(=O)c2ccc(CO[N+](=O)[O-])cc2)O1 (stereo partly shown) [Example 1]", 114),
    ("CC1(C)O[C@@H]2C[C@H]3[C@@H]4CCC5=CC(=O)C=C[C@]5(C)[C@@]4(F)[C@@H](O)C[C@]3(C)[C@]2(C(=O)CO)O1 [Triamcinolone acetonide, reference compound]", 278),
    ("CCOC(=O)O[C@]1(C(=O)COC(=O)c2ccc(CO[N+](=O)[O-])cc2)CC[C@H]2[C@@H]3CCC4=CC(=O)C=C[C@]4(C)[C@H]3[C@@H](O)C[C@@]21C [Example 2]", 175),
]

###

Tested on: dermal microvasculature, leukocyte/endothelial cells interaction
experimental-details: Intravital microscopy of skin flap in mice (vessel diameter, rolling leukocytes)
Type: in vivo, C57B16 male mice
Parameters: unit not given here
condition-parameters: 3 nmol topical
The following molecules are listed with their measured Area under the curve (change in flux of rolling leucocytes) values.
readout-name: Area under the curve (change in flux of rolling leucocytes)

# molecule, numeric-value
rows = [
    ("CCOC(=O)O[C@]1(C(=O)COC(=O)CC)CC[C@H]2[C@@H]3CCC4=CC(=O)C=C[C@]4(C)[C@H]3[C@@H](O)C[C@@]21C [Prednicarbate, reference compound]", 412),
    ("CCOC(=O)O[C@]1(C(=O)COC(=O)c2ccc(CO[N+](=O)[O-])cc2)CC[C@H]2[C@@H]3CCC4=CC(=O)C=C[C@]4(C)[C@H]3[C@@H](O)C[C@@]21C", 300),
    ("CC1(C)O[C@@H]2C[C@H]3C4CCC5=CC(=O)C=C[C@]5(C)[C@@]4(F)[C@@H](O)C[C@]3(C)[C@]2(C(=O)COC(=O)c2ccc(CO[N+](=O)[O-])cc2)O1 (stereo partly shown)", 247),
    ("CC1(C)O[C@@H]2C[C@H]3[C@@H]4CCC5=CC(=O)C=C[C@]5(C)[C@@]4(F)[C@@H](O)C[C@]3(C)[C@]2(C(=O)CO)O1 [Triamcinolone acetonide, reference compound]", 376),
]
